molecular target: αvβ3 (Homo sapiens, UniProt P05106+P06756); construct: selected purified integrins were separately immobilized in Titertek microtiter wells; experiment: Ligand-receptor binding assay, immobilized αvβ3; settings: radiolabeled fibrinogen; average of duplicate data points ± standard deviation; read-out: αvβ3 (IC50 μM)
Sequence (P06756 31-889 limits assumed): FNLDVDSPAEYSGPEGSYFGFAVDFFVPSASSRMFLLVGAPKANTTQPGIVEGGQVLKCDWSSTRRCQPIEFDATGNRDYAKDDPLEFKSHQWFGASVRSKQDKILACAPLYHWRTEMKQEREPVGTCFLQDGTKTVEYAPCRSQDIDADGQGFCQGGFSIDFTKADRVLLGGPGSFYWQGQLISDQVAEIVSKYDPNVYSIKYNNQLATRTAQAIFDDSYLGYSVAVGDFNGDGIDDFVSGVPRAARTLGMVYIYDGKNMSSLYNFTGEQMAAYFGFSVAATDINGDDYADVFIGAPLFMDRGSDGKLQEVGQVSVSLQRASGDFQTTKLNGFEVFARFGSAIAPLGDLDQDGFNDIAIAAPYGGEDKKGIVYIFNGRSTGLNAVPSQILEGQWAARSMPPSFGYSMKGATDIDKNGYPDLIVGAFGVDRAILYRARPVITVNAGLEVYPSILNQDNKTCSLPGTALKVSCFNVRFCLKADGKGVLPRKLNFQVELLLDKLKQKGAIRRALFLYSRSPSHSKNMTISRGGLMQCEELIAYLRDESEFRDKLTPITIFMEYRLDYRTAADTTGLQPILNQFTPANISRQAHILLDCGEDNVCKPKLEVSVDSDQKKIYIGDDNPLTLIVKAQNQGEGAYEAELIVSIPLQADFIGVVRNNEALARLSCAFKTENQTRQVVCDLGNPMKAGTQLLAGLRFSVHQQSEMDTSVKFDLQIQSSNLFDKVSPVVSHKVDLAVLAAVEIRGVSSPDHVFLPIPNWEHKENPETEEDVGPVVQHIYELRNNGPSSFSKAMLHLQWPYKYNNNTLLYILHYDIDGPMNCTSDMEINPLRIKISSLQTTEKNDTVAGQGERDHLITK
Sequence (P06756 891-1048 partner limits assumed): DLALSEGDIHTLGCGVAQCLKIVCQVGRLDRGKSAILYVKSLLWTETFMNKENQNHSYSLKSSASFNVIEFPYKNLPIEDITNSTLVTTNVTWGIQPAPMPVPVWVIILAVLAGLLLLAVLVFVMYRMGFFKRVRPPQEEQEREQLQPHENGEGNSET
Sequence (P05106 27-788): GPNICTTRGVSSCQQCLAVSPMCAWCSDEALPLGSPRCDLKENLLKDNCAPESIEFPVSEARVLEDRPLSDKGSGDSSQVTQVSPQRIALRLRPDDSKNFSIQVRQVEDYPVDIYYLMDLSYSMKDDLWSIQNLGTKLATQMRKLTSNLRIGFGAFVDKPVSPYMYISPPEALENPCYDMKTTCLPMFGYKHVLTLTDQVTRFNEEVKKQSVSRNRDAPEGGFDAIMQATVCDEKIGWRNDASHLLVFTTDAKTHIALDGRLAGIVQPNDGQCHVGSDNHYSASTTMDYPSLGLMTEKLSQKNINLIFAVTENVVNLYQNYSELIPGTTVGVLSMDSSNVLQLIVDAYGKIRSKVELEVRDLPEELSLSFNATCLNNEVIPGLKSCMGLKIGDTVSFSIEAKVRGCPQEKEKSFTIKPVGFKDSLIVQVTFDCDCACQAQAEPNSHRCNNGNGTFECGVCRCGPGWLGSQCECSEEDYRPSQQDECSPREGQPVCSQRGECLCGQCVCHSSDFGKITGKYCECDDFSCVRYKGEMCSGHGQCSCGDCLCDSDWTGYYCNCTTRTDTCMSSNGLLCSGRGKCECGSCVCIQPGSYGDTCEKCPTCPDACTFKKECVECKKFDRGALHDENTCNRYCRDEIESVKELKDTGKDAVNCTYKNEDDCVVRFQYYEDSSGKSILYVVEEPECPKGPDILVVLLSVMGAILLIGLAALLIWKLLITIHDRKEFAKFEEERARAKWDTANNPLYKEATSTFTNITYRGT
Where a SMILES comes first, the peptide text is derived from it. [ ]: non-standard residue; d: D form.
propertyName: IC50 (µM)

Below, 3 compounds whose answers are already recorded.
{"columns": ["compound", "system", "IC50 [µM]"],
 "data": [
  ["CC(C)[C@@H]1NC(=O)[C@H](Cc2ccccc2)NC(=O)[C@H](CC(=O)O)NC(=O)CNC(=O)[C@@H](CCCNC(=N)N)NC(=O)CNC1=O [Peptide 62181, cyclo (GrGDFV)] (cyclo(G[dR]GDFV))", "αvβ3 (Homo sapiens, UniProt P05106+P06756)", 1.96],
  ["CC(C)C[C@@H]1NC(=O)[C@@H](Cc2ccccc2)NC(=O)[C@H](CC(=O)O)NC(=O)CNC(=O)[C@H](CCCNC(=N)N)NC(=O)CNC1=O [Peptide 62179, cyclo (GRGDfL)] (cyclo(GRGD[dF]L))", "αvβ3 (Homo sapiens, UniProt P05106+P06756)", 0.395],
  ["CC(C)C[C@@H]1NC(=O)[C@@H](Cc2ccccc2)NC(=O)[C@H](CC(=O)O)NC(=O)CNC(=O)[C@H](CCCNC(=N)N)NC(=O)[C@H](C)NC1=O [Peptide 62175, cyclo (ARGDfL)] (cyclo(ARGD[dF]L))", "αvβ3 (Homo sapiens, UniProt P05106+P06756)", 1.05]
]}

(I) CC(C)[C@@H]1NC(=O)[C@@H](Cc2ccccc2)NC(=O)[C@H](CC(=O)O)NC(=O)[C@H](C)NC(=O)[C@H](CCCN=C(N)N)NC1=O [Peptide 62185, cyclo (RADfV)] (cyclo(AD[dF]VR))
(II) CC(C)[C@@H]1NC(=O)[C@H](Cc2ccccc2)NC(=O)[C@H](CC(=O)O)NC(=O)[C@@H](C)NC(=O)[C@H](CCCNC(=N)N)NC1=O [Peptide 62186, cyclo (RaDFV)] (cyclo(R[dA]DFV))
Query: Thinking about recorded IC50 values, which is higher, I or II ? Answer = label.
Reply: II
